This listing pairs molecules with measured HepG2 72-hour cytotoxicity Sinf Average.
# Tested on: HepG2
# measurement.description: HepG2 72 h CellTiter-Glo cytotoxicity
# experimental.setup: 72 h
Structures can show the parent of a compound that is named as a salt.
Write down the numeric answer in % and omit the unit.

// worked examples, HepG2 72-hour cytotoxicity Sinf Average included
[
  {
    "molecule": "CC[C@H]1OC(=O)[C@H](C)[C@@H](O[C@H]2C[C@@](C)(OC)[C@@H](O)[C@H](C)O2)[C@H](C)[C@@H](O[C@@H]2O[C@H](C)C[C@H](N(C)C)[C@H]2O)[C@](C)(O)C[C@@H](C)CN(C)[C@H](C)[C@@H](O)[C@]1(C)O",
    "HepG2 72-hour cytotoxicity Sinf Average [%]": -100
  },
  {
    "molecule": "CC(CN(C)C)CN1c2ccccc2CCc2ccccc21 (stereo not drawn) [Trimipramine maleate]",
    "HepG2 72-hour cytotoxicity Sinf Average [%]": -100
  },
  {
    "molecule": "OCCN1CCN(CC/C=C2/c3ccccc3Sc3ccc(Cl)cc32)CC1",
    "HepG2 72-hour cytotoxicity Sinf Average [%]": -100
  },
  {
    "molecule": "COc1ccc2cc1Oc1ccc(cc1)C[C@H]1c3cc(c(OC)cc3CCN1C)Oc1c(OC)c(OC)cc3c1[C@H](C2)N(C)CC3",
    "HepG2 72-hour cytotoxicity Sinf Average [%]": -105
  },
  {
    "molecule": "C=CC(=O)Nc1cc(Nc2nccc(-c3cn(C)c4ccccc34)n2)c(OC)cc1N(C)CCN(C)C",
    "HepG2 72-hour cytotoxicity Sinf Average [%]": -107
  }
]

Okay, next one:
HepG2 72-hour cytotoxicity Sinf Average reported for this molecule CN(C)CC1=C[CH]([Fe][CH]2C=CC=C2)C=C1CNc1ccnc2cc(Cl)ccc12 (stereo not drawn) : -100

###

# System: HeLa-ACE2 cells
# measurement.description: Total cell count in the HeLa-ACE2 TOA (time of addition) assay
# Assay type: cell-based, human
# experimental.setup: Homo sapiens, HeLa-ACE2; read-out: HeLa-ACE2 TOA cell count EC50 GeoMean
Where a name gives a salt, the structure may show the parent alone.
quantity.name: EC50

[
  {
    "molecule": "CC[C@H]1OC(=O)[C@H](C)[C@@H](O[C@H]2C[C@@](C)(OC)[C@@H](O)[C@H](C)O2)[C@H](C)[C@@H](O[C@@H]2O[C@H](C)C[C@H](N(C)C)[C@H]2O)[C@](C)(O)C[C@@H](C)CN(C)[C@H](C)[C@@H](O)[C@]1(C)O",
    "EC50": "> 9.59 µM"
  },
  {
    "molecule": "OC(CNCC(O)C1CCc2cc(F)ccc2O1)C1CCc2cc(F)ccc2O1 (stereo not drawn) [Nebivolol HCl]",
    "EC50": "> 4.56 µM"
  },
  {
    "molecule": "COc1ccc2c(O[C@@H]3C[C@H]4C(=O)N[C@]5(C(=O)NS(=O)(=O)C6CC6)C[C@H]5/C=C\\CCCCN(C)C(=O)[C@@H]4C3)cc(-c3nc(C(C)C)cs3)nc2c1C",
    "EC50": "> 9.59 µM"
  },
  {
    "molecule": "CCCCC1CCc2cc(O)cc3c(CCN4CCN(c5cc(C)ccn5)CC4)c(C)n1c23 (stereo not drawn)",
    "EC50": "> 9.59 µM"
  },
  {
    "molecule": "CC(C)Oc1ccc(-c2nc(-c3cccc4c3CC[C@@H]4NCCO)no2)cc1C#N",
    "EC50": "> 9.59 µM"
  }
]

Okay, next one:
EC50 reported for this molecule `CCOC(=O)[C@@H]1O[C@H]1C(=O)N[C@@H](CC(C)C)C(=O)N1CCN(Cc2ccc(OC)c(OC)c2OC)CC1` : > 9.59 µM
